These data points were gathered from ChEMBL document CHEMBL1201862.

# Tested on: CAKI-1
# ASSAY_PROTOCOL: NCI tumour cell line growth inhibition, 48 h
The source made the active and inactive calls. No stated cut-off is given here; in the data, active = GI50 up to about 1.1 µM and inactive = higher.
Your answer must be one of the following: true (1) for active, false (0) for inactive

Use these answered entries as a reference point.
>  <COMPOUND>
CCOP(=O)(OCC)/C(C#N)=C/c1coc2cc(C)cc(C)c2c1=O

>  <TARGET_ENTITY>
CAKI-1

>  <LABEL_VALUE>
false (0)

$$$$
>  <COMPOUND>
Cc1ccc(-c2n[nH]c(=O)[nH]2)cc1[N+](=O)[O-]

>  <TARGET_ENTITY>
CAKI-1

>  <LABEL_VALUE>
false (0)

$$$$
>  <COMPOUND>
CCOC(=O)c1cc([N+](=O)[O-])cc([N+](=O)[O-])c1Sc1[nH]cnc2ncnc1-2

>  <TARGET_ENTITY>
CAKI-1

>  <LABEL_VALUE>
false (0)

$$$$

Challenge: Tell me the assay call for O=C(O)CC1NC(/C(=C/c2ccccc2)NC(=O)c2ccccc2)OC1=O (stereo not given) please.
Response given: false (0)

Challenge: Tell me the assay call for "Nc1nn2c(C(Br)Br)cc(C(Br)Br)nc2c1[N+](=O)[O-]" please.
Response given: true (1)

Challenge: Tell me the assay call for "COc1ccccc1NC(=O)C1=C(C)NC(C)=C(C(=O)Nc2ccccc2OC)C1c1ccccc1Cl" please.
Response given: false (0)

Challenge: Tell me the assay call for "O=C1/C(=C/c2ccc(O)cc2)CCc2ccc([N+](=O)[O-])cc21" please.
Response given: false (0)

Challenge: Tell me the assay call for "O=C(O)c1ccccc1C1c2ccccc2Oc2ccccc21" please.
Response given: false (0)

Challenge: Tell me the assay call for "Sc1nnc(C23CC4CC(CC(C4)C2)C3)n1-c1ccc(Cl)cc1" please.
Response given: false (0)

Challenge: Tell me the assay call for "C=CCNC1=C2C[C@@H](C)C[C@@H](OC)[C@H](OC(=O)CCN(C)C)[C@H](C)/C=C(\C)[C@@H](OC(N)=O)[C@H](OC)/C=C\C=C(/C)C(=O)NC(=CC1=O)C2=O" please.
Response given: false (0)
